# Tested on: MDA-MB-231 cells (breast cancer)
# Assay protocol: MTT cytotoxicity assay, MDA-MB-231
# Type: cell-based
# Experimental parameters: Homo sapiens, 24 h treatment, read-out: In Vitro Cytotoxicity IC50 MDA-MB-231
Each item that follows carries a reported IC50.
Observed property: IC50

Compound: O=C(CSc1nc2ccccc2o1)NN=Cc1ccc(OC(F)(F)F)cc1 (mixture of isomers) [Compound 4b]
Result: 9.72 µM

Compound: COc1ccc2c(c1)C(=NNC(=O)CSc1nc3ccccc3o1)C(=O)N2 [Compound 5d]
Result: 8.44 µM

Compound: N#Cc1ccc(C=NNC(=O)CSc2nc3ccccc3o2)cc1 (mixture of isomers) [Compound 4c]
Result: 21.1 µM

Compound: O=C(CSc1nc2ccccc2o1)NN=C1C(=O)Nc2ccccc21 [Compound 5a]
Result: 14.6 µM

Source listed as paper PMC9863562.
